These measurements were taken from paper PMC4059350.

Biological target: Msh2-Msh3 (Saccharomyces cerevisiae, UniProt P25336+P25847)
Sequence (P25847 1-964): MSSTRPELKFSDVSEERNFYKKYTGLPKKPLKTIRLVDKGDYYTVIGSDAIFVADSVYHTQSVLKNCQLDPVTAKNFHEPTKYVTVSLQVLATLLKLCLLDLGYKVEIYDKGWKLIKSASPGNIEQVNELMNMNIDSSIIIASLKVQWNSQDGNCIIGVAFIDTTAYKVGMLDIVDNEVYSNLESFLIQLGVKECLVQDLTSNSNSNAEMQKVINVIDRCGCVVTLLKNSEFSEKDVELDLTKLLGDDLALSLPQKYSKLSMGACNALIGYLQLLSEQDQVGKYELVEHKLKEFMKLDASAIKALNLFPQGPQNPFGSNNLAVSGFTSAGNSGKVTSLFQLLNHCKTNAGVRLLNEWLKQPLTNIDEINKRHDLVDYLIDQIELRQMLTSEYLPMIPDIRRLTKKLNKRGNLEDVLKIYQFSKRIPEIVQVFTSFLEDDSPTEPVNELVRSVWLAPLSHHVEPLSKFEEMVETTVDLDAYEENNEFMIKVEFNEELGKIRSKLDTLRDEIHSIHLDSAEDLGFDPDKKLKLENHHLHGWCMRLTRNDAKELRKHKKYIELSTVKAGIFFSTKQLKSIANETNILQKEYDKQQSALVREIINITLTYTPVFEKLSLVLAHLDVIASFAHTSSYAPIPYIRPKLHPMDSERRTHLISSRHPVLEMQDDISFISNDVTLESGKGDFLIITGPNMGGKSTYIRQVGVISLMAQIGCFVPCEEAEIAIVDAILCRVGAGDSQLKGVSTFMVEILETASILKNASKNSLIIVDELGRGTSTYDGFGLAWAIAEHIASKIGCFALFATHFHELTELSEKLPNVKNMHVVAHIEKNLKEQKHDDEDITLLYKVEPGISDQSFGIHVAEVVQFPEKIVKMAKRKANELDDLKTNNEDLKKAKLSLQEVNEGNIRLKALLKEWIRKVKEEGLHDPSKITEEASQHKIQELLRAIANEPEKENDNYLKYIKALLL
Sequence (P25336 1-1018): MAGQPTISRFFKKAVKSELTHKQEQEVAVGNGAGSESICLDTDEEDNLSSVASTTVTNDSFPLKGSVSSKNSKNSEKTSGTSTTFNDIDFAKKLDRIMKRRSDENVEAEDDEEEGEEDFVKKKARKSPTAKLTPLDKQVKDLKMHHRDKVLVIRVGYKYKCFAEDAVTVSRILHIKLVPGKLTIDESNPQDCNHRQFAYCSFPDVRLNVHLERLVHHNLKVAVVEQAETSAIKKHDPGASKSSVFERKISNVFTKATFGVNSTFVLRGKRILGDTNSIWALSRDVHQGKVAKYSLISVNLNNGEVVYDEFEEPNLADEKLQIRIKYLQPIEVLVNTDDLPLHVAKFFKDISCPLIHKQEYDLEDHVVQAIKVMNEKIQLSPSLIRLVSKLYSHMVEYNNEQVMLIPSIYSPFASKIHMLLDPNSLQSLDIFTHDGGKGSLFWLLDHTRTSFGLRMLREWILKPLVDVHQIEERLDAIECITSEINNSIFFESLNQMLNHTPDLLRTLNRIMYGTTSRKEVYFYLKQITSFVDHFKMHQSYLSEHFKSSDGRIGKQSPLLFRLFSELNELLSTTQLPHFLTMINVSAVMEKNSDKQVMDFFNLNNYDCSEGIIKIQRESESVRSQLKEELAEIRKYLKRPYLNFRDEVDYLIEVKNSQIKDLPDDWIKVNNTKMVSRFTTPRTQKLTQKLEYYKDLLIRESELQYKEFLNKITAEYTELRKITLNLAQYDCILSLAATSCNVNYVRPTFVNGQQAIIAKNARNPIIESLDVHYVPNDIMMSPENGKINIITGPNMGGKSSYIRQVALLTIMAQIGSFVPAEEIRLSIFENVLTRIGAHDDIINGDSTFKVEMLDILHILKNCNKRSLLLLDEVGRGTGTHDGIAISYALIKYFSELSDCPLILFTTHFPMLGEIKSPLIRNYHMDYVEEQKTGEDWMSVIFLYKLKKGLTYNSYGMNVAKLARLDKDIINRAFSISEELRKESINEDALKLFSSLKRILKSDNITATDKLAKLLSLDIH
Test: ATPγS titration into steady-state coupled ATPase assay
pIC50: −log10 of the molar value.
endpointName: pIC50

compoundSmiles	endpointName	numericReadout
Nc1ncnc2c1ncn2[C@@H]1O[C@H](CO[P@](=O)(O)O[P@](=O)(O)O[P@@](=O)(O)S)[C@@H](O)[C@H]1O	pIC50	2.20
